# measurement.notes: Human HepG2 cell viability assay in 384 well format
# Assay type: toxicity, cell-based
# Design: dose 125 nL, time 70.5 hour; concentration not given beside the values
# run.conditions: HepG2 cells, read-out: Inhibition
Field: cytotoxicity at 70.5 h. Provide a value for each of the molecules that follow.
Answers are plain numbers, in %.

Observe how each entry below is paired with its result.
COc1cccc(C(=O)N2CCN(CC(O)c3ccccc3)CC2)c1 (stereo not drawn)
-9.4
Cc1c(C)n(CC(O)CN2CCC(O)CC2)c2c(Cl)cccc12 (stereo not drawn)
16.5
CC(C(=O)N1CCCN(c2ccc(C#N)cc2)CC1)n1ccnc1 (stereo not drawn)
-1.24
CN(C[C@H]1CN2CC[C@H]1C[C@@H]2CNC(=O)c1ccco1)c1ccccc1
-0.576
CCN(Cc1ccco1)C(C)c1nc(C(C)(C)C)no1 (stereo not drawn)
-3.44
Cn1nccc1C(=O)N1CCN(C(=O)C2CC2)[C@@H]2CS(=O)(=O)C[C@@H]21
-5.45
CC(C)N(CCNC(=O)N1CCCC(N(C)C)C1)C1CC1 (stereo not drawn)
13.5
COc1ccc2nnc(CCCC(=O)NCCc3ccncc3)n2n1
-5

Give cytotoxicity at 70.5 h for all molecules that follow.
1. Cc1csc(NC(=O)CN2CCC(c3ccnn3CCO)CC2)n1
2. CCCc1nc(C)c(C(=O)NCCn2nc3ccccn3c2=O)s1
3. COc1ccc(Oc2cccc(C#N)n2)cc1CN1CCCC1
4. COc1ccc(-c2cc(C3CCOC3)c(C#N)c(N)n2)cn1 (stereo not drawn)
5. Cc1nc(C2CCCN(C(=O)c3cnn(C(C)(C)C)c3)C2)no1 (stereo not drawn)
6. C=Cc1ccc(CN2C(=O)C3(CCNCC3)Nc3ccccc32)cc1
7. Cn1nc(C2CCCN(Cc3ccc(F)c(F)c3)C2)c2nccnc21 (stereo not drawn)
8. O=C(NCC1CC1)C1=NOC2(CCN(Cc3ccc4c(c3)OCO4)C2)C1 (stereo not drawn)

1. 33.6
2. 19.2
3. -1.4
4. 18.9
5. 23.3
6. 102
7. 27.1
8. -5.94

Look at each molecule and report its cytotoxicity at 70.5 h.
1. CC(C1CC1)N(C(=O)NCCCn1nc2ccccn2c1=O)C1CC1 (stereo not drawn)
2. O=S(=O)(NCCCn1cncn1)c1ccc2c(c1)CCC2
3. Cc1ccnc(OCC(=O)N2CCC(C(N)=O)CC2)n1
4. O=C(CCN1CCCO1)N1CCCC(CO)(CCCc2ccccc2)C1 (stereo not drawn)
5. CCn1cc(-c2c(C)c(C3CCOC(C)(C)C3)nc(N)c2C#N)cn1 (stereo not drawn)
6. CCn1ncnc1C(C)NC(=O)CC1CCN(C(C)C)CC1 (stereo not drawn)
7. Cc1noc(C2CCC3(CCN(C(=O)c4cnccn4)CC3)O2)n1 (stereo not drawn)

[2.18, -5.6, -4.44, -8.66, 9.87, 30, 3.99]

* * *

Exercise: state measured cytotoxicity at 70.5 h for each of the molecules provided.
# measurement.notes: Human HepG2 cell viability assay in 384 well format
# Assay type: toxicity, cell-based
# Set-up: dose 125 nL, time 70.5 hour; concentration not given beside the values
# run.conditions: HepG2 cells, read-out: Inhibition
Give bare numbers, in %.

O=C(c1ccc(Cl)cc1)N1CCn2c(nn(-c3cccc(Cl)c3)c2=O)C1
-6.26

# batch size: 3; output cytotoxicity at 70.5 h per entry
1. CCC(=O)N1CCN(S(=O)(=O)c2cccc(F)c2)[C@H]2CS(=O)(=O)C[C@H]21
2. COC(C(=O)N1CCN(Cc2noc(C)n2)CC1)c1ccccc1 (stereo unspecified)
3. O=C(CCc1ccncc1)Nc1ccc(OCC2CC2)cc1

1: -13.7; 2: -3.29; 3: -11.9

* * *

Consider the following compounds; for each one, report its cytotoxicity at 70.5 h.
# measurement.notes: Human HepG2 cell viability assay in 384 well format
# Assay type: toxicity, cell-based
# Parameters: dose 125 nL, time 70.5 hour; concentration not given beside the values
# run.conditions: HepG2 cells, read-out: Inhibition
Give bare numbers, in %.

Check out these entries, answers already filled in.
CCc1nc(NS(=O)(=O)c2cc(C)ccc2Br)no1
1.48
COCCN1C(=O)[C@H]2CC[C@@H]1CN(S(=O)(=O)c1ccc(C#N)cc1)C2
-3.7
Cc1ccoc1CNC(C)c1nnc2n1CCCC2 (stereo not drawn)
13
O=C(Cc1csc(-c2ccc(Cl)cc2)n1)NC(C(=O)O)c1ccccc1 (stereo not drawn)
-9.96
CN1CCCc2cc(CNC(=O)c3ccc(-n4cnnc4)cc3)ccc21
-2.87

Respectfully, I request cytotoxicity at 70.5 h for each entry included below.
1. Cc1cc2n(n1)CC(CNC1CCN(Cc3ccncc3)CC1)CN2 (stereo not drawn)
2. Cn1ncc2c(N3CCN(CCC(N)=O)CC3)nc(C3CCCC3)nc21
3. CC(SCCC(=O)NC(N)=O)c1c(F)cccc1F (stereo not drawn)
4. Cc1ccc(N2CCCC(NCc3ccc4c(c3)CCO4)C2)nn1 (stereo not drawn)
5. Cc1ccc(CNC(=O)Cn2c(=O)c3cccnc3n2C)cc1F
6. CN(C)S(=O)(=O)c1ccc(CN2CCCC2c2cccs2)o1 (stereo not drawn)

-0.58
-9.84
-10.5
4.47
-12.5
15.3

Count: 4. Required value per item: cytotoxicity at 70.5 h.
1. O=C(NCc1cnc2n1CCN(Cc1ccoc1)C2)c1ccno1
2. CCOC[C@@H]1CCC[C@@]12CN(Cc1cccnc1)CCO2
3. COCCN1C(=O)C[C@H]2[C@H]1CCN2Cc1cccc(C#N)c1
4. CC(C)(Oc1ccc(C(N)=O)cc1)C(=O)N(CCC#N)CC1CCCO1 (stereo not drawn)

1. -0.405
2. -5.78
3. -19.1
4. 6.27

* * *

# measurement.notes: Human HepG2 cell viability assay in 384 well format
# Format: toxicity, cell-based
# Parameters: dose 125 nL, time 70.5 hour; concentration not given beside the values
# run.conditions: HepG2 cells, read-out: Inhibition
Kindly supply the reported cytotoxicity at 70.5 h values for the records listed here.
Numbers only, in %.

Nc1nccc(C2CN(Cc3ccc(-c4ccccc4C(=O)O)o3)C2)n1
2.9
COC(=O)CCNC(=O)c1coc(COc2ccc(F)cc2)n1
-5.99
CCOCc1ccc(CNC2=NCCCN2)cc1
-2.49
COc1ccc(CCCC(=O)N2CCCC(n3cccn3)C2)cc1 (centres undefined)
14.5
COc1ccc2c(CN3CCCN(Cc4ccncc4)CC3)n[nH]c2c1
-1.17

Give measured cytotoxicity at 70.5 h for every item shown.
1. Cc1cccc(-n2ncc3c2CCCC3NCC(C)(C)CO)c1C (centres undefined)
2. O=C(NCc1ccco1)[C@@H]1CC[C@@H]2[C@@H](CCN2CC2CC2)O1

[-10.7, -6.24]

* * *

# measurement.notes: Human HepG2 cell viability assay in 384 well format
# Type: toxicity, cell-based
# Set-up: dose 125 nL, time 70.5 hour; concentration not given beside the values
# run.conditions: HepG2 cells, read-out: Inhibition
readout.type: cytotoxicity at 70.5 h (%)
Give bare numbers, in %.

Cc1nc(-c2ccccc2)sc1CNC1CCc2ncnn2C1 (configuration not stated)
-10.6
Cc1nc(CN2CCCC(N(C)CCc3cccs3)C2)no1 (configuration not stated)
8.18

For each of the compounds below, note its cytotoxicity at 70.5 h.
1. COCCNC(=O)Cn1cc(OCc2ccc(F)cc2)c(=O)cc1CO
2. CN(C)C1(CNc2ncc(Br)cn2)CCOCC1

[-9.69, -10.2]

Provide cytotoxicity at 70.5 h values for the following items, in order.
1. CCc1ccc(CNC(=O)CCNc2ncccn2)s1
2. COc1cccc(CN(C(=O)NC2CC2)C2CCC(O)CC2)c1 (configuration not stated)
3. Cc1cccc(C)c1Nc1noc2c1CN(C(=O)c1ccnn1C)CC2
4. Cc1cccc(N2CCN(CCC(=O)NCc3ccc(C)s3)CC2)c1

[-13.5, -6.74, 69.8, 20.7]

Report cytotoxicity at 70.5 h for every entry below.
1. CN(C)CC1(O)CCCN(c2nc(-c3ccccc3)no2)CC1 (configuration not stated)
2. O=C(c1ccc(Cn2cc(Br)cn2)cc1)N1CCCC1
3. CC(C)OCCCNC(=O)c1ccc(-c2ccco2)[nH]c1=O
4. Cc1nc(-c2cccc(C(=O)N(C)CC(C)O)c2)cs1 (configuration not stated)

-7.51
30.7
-2.82
0.422

* * *

# measurement.notes: Human HepG2 cell viability assay in 384 well format
# Format: toxicity, cell-based
# Set-up: dose 125 nL, time 70.5 hour; concentration not given beside the values
# run.conditions: HepG2 cells, read-out: Inhibition
For each of the compounds below, state its cytotoxicity at 70.5 h.
Give bare numbers, in %.

COc1ccc(NC(C)=O)cc1S(=O)(=O)Nc1ccon1
-5.66
CCOC(C)c1noc(CN(C)C(=O)c2cc3ccccn3c2)n1 (stereo unspecified)
-3.99
CN(C)CCn1c(=O)n(C)c(=O)c2ccccc21
18.7
CCN1CCN(C[C@@H]2CN(c3ncccc3C(F)(F)F)C[C@@H]2CO)CC1
-5.49
CCOC(=O)CNC(=O)NCc1cccn1Cc1cccc(C)c1
-18.9

Now for a further compound.
Item CNc1nc2c(c(C(=O)N3CCCC3)n1)CN(C(=O)c1cccs1)CC2 has what recorded cytotoxicity at 70.5 h?
5.33

Attribution: ChEMBL document CHEMBL3507680
